- Read-out: E-selectin (Homo sapiens)
- methodSummary: BSK_SAg_Eselectin: BioMAP Diversity Plus: SAg Assay for Eselectin Biomarker Activity (AID 2283091)
- cond: primary human HUVEC with PBMC; actives raise or lower the signal
Activity calls are given as the source filed them. Rule for the calls: active = hit-call score of the fitted dose curve at least 0.9, where 1 is the maximum; inactive = score below 0.9.
Please answer using one outcome listed in active, inactive

Field: example entries. Status: answers known.
>>> classification("CC(C)Oc1cccc(NC(=O)c2ccccc2C(F)(F)F)c1")
"inactive"
>>> classification("Cc1c(COC(=O)[C@@H]2[C@H](/C=C(\\Cl)C(F)(F)F)C2(C)C)cccc1-c1ccccc1")
"active"

Turning now to a further compound:
Recorded test outcome, item CN=C=S
active

* * *

- methodSummary: CCTE_Mundy_HCI_Cortical_Synap_Neur_Matur_NeuriteLength: CCTE's Synaptogenesis and Neurite Maturation Assay in rat cortical cells for Neurite Length, Mundy Lab (AID 2284214)
Activity calls are given as the source filed them. Rule for the calls: active = hit-call score of the fitted dose curve at least 0.9, where 1 is the maximum; inactive = score below 0.9.
Please answer using one outcome listed in yes (1) (active), no (0) (inactive)

Field: example entries. Status: answers known.
>>> classification("O=C(Nc1ccccc1-c1ccc(Cl)cc1)c1cccnc1Cl")
"no (0)"
>>> classification("CS(=O)(=O)c1ccc(C(=O)C2C(=O)CCCC2=O)c([N+](=O)[O-])c1")
"no (0)"
>>> classification("CN/C(=N\\[N+](=O)[O-])NCc1cnc(Cl)s1")
"no (0)"
>>> classification("CC(C)(C)C(=O)C(Oc1ccc(Cl)cc1)n1cncn1 (stereo not given)")
"yes (1)"

Recorded test outcome, item COC(=O)N(C(=O)N1CO[C@@]2(C(=O)OC)Cc3cc(Cl)ccc3C2=N1)c1ccc(OC(F)(F)F)cc1
no (0)

* * *

- Read-out: Interleukin-1 alpha (IL1a), IL1A (gene 3552)
- methodSummary: BSK_LPS_IL1a: BioMAP Diversity Plus: LPS Assay for Interleukin-1 alpha (IL1a) Biomarker Activity (AID 2283080)
- cond: primary human HUVEC with PBMC; actives raise or lower the signal
Activity calls are given as the source filed them. The calls were made as follows: active = hit-call score of the fitted dose curve at least 0.9, where 1 is the maximum; inactive = score below 0.9.
Please answer using one outcome listed in TRUE for active, FALSE for inactive

Field: example entries. Status: answers known.
>>> classification("CC(C)Nc1nc(Cl)nc(NC(C)C)n1")
"FALSE"
>>> classification("CN=C=S")
"FALSE"
>>> classification("CC1(C)CON(Cc2ccccc2Cl)C1=O")
"FALSE"
>>> classification("COC(=O)NC(=S)Nc1ccccc1NC(=S)NC(=O)OC")
"FALSE"
>>> classification("N#Cc1c(Cl)cccc1Cl")
"FALSE"

Recorded test outcome, item CSC(=O)c1c(C(F)F)nc(C(F)(F)F)c(C(=O)SC)c1CC(C)C
TRUE

Recorded test outcome, item COc1ccc(-c2ccccc2)cc1NNC(=O)OC(C)C
FALSE

Recorded test outcome, item CCN(CC)C(=O)C(C)Oc1cccc2ccccc12 (stereo not drawn)
FALSE

Recorded test outcome, item CCCC(=NOCC)C1=C(O)CC(CC(C)SCC)CC1=O (stereo not drawn)
FALSE

Recorded test outcome, item COc1cc(OC)nc(NC(=O)NS(=O)(=O)c2ncccc2OCC(F)(F)F)n1
FALSE

* * *

- methodSummary: CCTE_Shafer_MEA_acute_firing_rate_mean: CCTE's Neural Acute Assay for Mean Firing Rate, Shafer Lab (AID 2284009);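 note: analyzed for loss of signal so actives lower firing rate relative to DMSO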
Calls of active or inactive are those of the source. Rule for the calls: active = hit-call score of the fitted dose curve at least 0.9, where 1 is the maximum; inactive = score below 0.9.
reportedProperty: AC50

# count of solved cases: 5
>>> result("Cc1ccc(N=CN(C)C=Nc2ccc(C)cc2C)c(C)c1")
"0.125 µM (active)"
>>> result("CO/N=C(/C1=NOCCO1)c1ccccc1Oc1ncnc(Oc2ccccc2Cl)c1F")
"7.18 µM (active)"
>>> result("CC(C)C1(C)N=C(c2ncccc2C(=O)O)NC1=O (configuration not stated)")
"inactive"
>>> result("CCCN(CC)CC1COC2(CCC(C(C)(C)C)CC2)O1 (configuration not stated)")
"inactive"
>>> result("N#Cc1c[nH]cc1-c1cccc2c1OC(F)(F)O2")
"4.27 µM (active)"

Check the records and state AC50 for CC1(C)C(C(=O)OC(C#N)c2cccc(Oc3ccccc3)c2)C1(C)C (configuration not stated)
inactive

Check the records and state AC50 for Clc1nc(Cl)nc(Nc2ccccc2Cl)n1
inactive

This collection of values is drawn from PubChem BioAssay (EPA / NIEHS).
